- Test system: NCI-H929 complex spheroids, viability % test/control
- assay_comment: Anticancer human tumor NCI-H929 cell line growth inhibition [RAS];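 further: compound exposure lasted seven days before viability was read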
- run_parameters: second compound 0.03 µM; first compound 0.01 µM; active compounds read low
Note to self: viability, T/C under 80% means Y, ties and anything higher get N.

- compound: "C=CC(=O)Nc1cc(Nc2nccc(-c3cn(C)c4ccccc34)n2)c(OC)cc1N(C)CCN(C)C + CCn1c(-c2cc(N3CCN(C)CC3)cnc2C(C)OC)c2c3cc(ccc31)-c1csc(n1)CC(NC(=O)C1CC1C)C(=O)N1CCCC(N1)C(=O)OCC(C)(C)C2"
  measurement_target: "NCI-H929 complex spheroids, viability % test/control"
  category: "Y"

(Q) Consider the compound Nc1ccn(C2OC(CO)C(O)C2(F)F)c(=O)n1 (stereo not drawn) + CCn1c(-c2cc(N3CCN(C)CC3)cnc2C(C)OC)c2c3cc(ccc31)-c1csc(n1)CC(NC(=O)C1CC1C)C(=O)N1CCCC(N1)C(=O)OCC(C)(C)C2 . Is its viability, T/C strictly less than 80%?
(A) Y

(Q) Consider the compound C=CC(=O)Nc1cc(Nc2nccc(-c3cn(C)c4ccccc34)n2)c(OC)cc1N(C)CCN(C)C + CCn1c(-c2cccnc2C(C)OC)c2c3cc(ccc31)N1CCOC(CC(NC(=O)C(C(C)C)N(C)C(=O)C3(F)CCN(C(=O)C#CC(C)(C)N(C)C)CC3)C(=O)N3CCCC(N3)C(=O)OCC(C)(C)C2)C1 . Is its viability, T/C strictly less than 80%?
(A) N

(Q) Consider the compound CC(C)n1nc(-c2ccc3oc(N)nc3c2)c2c(N)ncnc21 + CCn1c(-c2cc(N3CCN(C)CC3)cnc2C(C)OC)c2c3cc(ccc31)-c1csc(n1)CC(NC(=O)C1CC1C)C(=O)N1CCCC(N1)C(=O)OCC(C)(C)C2 . Is its viability, T/C strictly less than 80%?
(A) Y

(Q) Consider the compound C=CC(=O)N1CCN(c2nc(OCC3CCCN3C)nc3c(F)c(-c4nc(N)cc(C)c4C(F)(F)F)c(Cl)cc23)C(C)C1 (stereo not drawn) + CCn1c(-c2cccnc2C(C)OC)c2c3cc(ccc31)N1CCOC(CC(NC(=O)C(C(C)C)N(C)C(=O)C3(F)CCN(C(=O)C#CC(C)(C)N(C)C)CC3)C(=O)N3CCCC(N3)C(=O)OCC(C)(C)C2)C1 . Is its viability, T/C strictly less than 80%?
(A) N

(Q) Consider the compound CCN1CCN(Cc2ccc(Nc3ncc(F)c(-c4cc(F)c5nc(C)n(C(C)C)c5c4)n3)nc2)CC1 + CCn1c(-c2cccnc2C(C)OC)c2c3cc(ccc31)N1CCOC(CC(NC(=O)C(C(C)C)N(C)C(=O)C3(F)CCN(C(=O)C#CC(C)(C)N(C)C)CC3)C(=O)N3CCCC(N3)C(=O)OCC(C)(C)C2)C1 . Is its viability, T/C strictly less than 80%?
(A) N

(Q) Consider the compound O=C(c1ccc(F)c(F)c1Nc1ccc(I)cc1F)N1CC(O)([C@@H]2CCCCN2)C1 + CCn1c(-c2cc(N3CCN(C)CC3)cnc2C(C)OC)c2c3cc(ccc31)-c1csc(n1)CC(NC(=O)C1CC1C)C(=O)N1CCCC(N1)C(=O)OCC(C)(C)C2 . Is its viability, T/C strictly less than 80%?
(A) Y
